Reported pIC50 values are given for each entry in this list.
target: AnKir1 (Anopheles gambiae); assay: Tl+ flux assay in T-REx-HEK293 cells expressing AnKir1; format: cell-based; conditions: Tl+ flux assay; read-out: AnKir1 IC50 (Tl+ flux)
Sequence (A0A075M2J8 1-555): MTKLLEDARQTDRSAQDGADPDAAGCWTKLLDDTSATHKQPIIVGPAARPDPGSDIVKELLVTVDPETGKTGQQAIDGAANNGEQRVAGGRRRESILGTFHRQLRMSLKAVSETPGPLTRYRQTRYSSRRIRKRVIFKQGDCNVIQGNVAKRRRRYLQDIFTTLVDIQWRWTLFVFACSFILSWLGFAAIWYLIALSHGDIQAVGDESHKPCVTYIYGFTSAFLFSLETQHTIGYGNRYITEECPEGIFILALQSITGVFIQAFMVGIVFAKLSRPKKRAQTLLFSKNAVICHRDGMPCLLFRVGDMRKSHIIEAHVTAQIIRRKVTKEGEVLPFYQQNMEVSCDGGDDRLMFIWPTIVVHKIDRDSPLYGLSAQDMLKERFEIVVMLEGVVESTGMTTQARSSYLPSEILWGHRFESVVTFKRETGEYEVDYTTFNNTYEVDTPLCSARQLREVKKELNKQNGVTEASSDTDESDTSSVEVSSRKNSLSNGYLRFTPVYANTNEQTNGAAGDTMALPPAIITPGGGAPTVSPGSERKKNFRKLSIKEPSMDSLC
pIC50: −log10 of the molar value.
observation_type: pIC50

>>> number("O=C(Cn1nc(C(F)(F)F)c2c1CCCC2)N1CCCc2ccccc21 [VU041]")
5.60
>>> number("O=C(Cn1ncc2c1CCOC2)N1CCCc2ccccc21 [VU730]")
5.62

====

Target: hKir2.1 (Homo sapiens, UniProt P63252)
Construct: expressed in transfected cells
Sequence (P63252 1-427): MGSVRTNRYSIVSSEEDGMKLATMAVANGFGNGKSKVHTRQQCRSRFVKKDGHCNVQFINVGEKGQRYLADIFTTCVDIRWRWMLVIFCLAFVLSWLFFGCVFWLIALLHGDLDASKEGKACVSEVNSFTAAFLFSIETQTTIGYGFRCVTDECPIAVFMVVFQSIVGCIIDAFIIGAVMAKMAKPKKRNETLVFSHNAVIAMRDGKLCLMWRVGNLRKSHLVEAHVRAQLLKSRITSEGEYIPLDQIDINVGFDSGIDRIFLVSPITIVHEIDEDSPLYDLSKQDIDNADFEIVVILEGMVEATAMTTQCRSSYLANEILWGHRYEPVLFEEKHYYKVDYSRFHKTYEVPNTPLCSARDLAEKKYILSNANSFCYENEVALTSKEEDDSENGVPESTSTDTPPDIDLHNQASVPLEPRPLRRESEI
Experiment: Tl+ flux assay, mammalian Kir2.1
Format: cell-based
Conditions: Tl+ flux assay; read-out: Kir2.1 IC50 (Tl+ flux)
observation_type: IC50 (µM)

>>> number("O=C(Cn1nc(C(F)(F)F)c2c1CCCC2)N1CCCc2ccccc21")
12.7

====

biological target: hKir2.1 (Homo sapiens, UniProt P63252); construct: expressed in transfected cells; assay: Tl+ flux assay, mammalian Kir2.1; assay type: cell-based; details: Tl+ flux; Tables S2/S3 and supplemental text; read-out: hKir2.1 IC50
pIC50: −log10 of the molar value.
pIC50 values by entry
observation_type: pIC50

>>> result("O=C(Cn1nc(C(F)(F)F)c2c1CCCC2)N1CCCC(c2ccccc2)C1 (centres unmarked)")
"< 4.52"
>>> result("O=C(Cn1nc(C(F)(F)F)c2c1CCCC2)N1CCCc2ccccc21")
4.95
>>> result("O=C1CCCc2c1ccn2CC(=O)N1CCCc2ccccc21")
"< 4.52"
>>> result("O=C(Cn1nc(C(F)(F)F)c2c1CCCC2)N1CCCC2CCCCC21 (centres unmarked)")
"< 4.52"
>>> result("CC1CC(C)CN(C(=O)Cn2nc(C(F)(F)F)c3c2CCCC3)C1 (centres unmarked)")
"< 4.52"
